System: TK-10
Experiment: NCI tumour cell line growth inhibition, 48 h
Calls of active or inactive are those of the source. No stated cut-off is given here; in the data, active = GI50 up to about 1.1 µM and inactive = higher.
The categories you may choose from are active, inactive

So what was the verdict on `Cc1ccc(C(=O)O)c(/C=C2\Cc3ccc(C)cc3C2=O)c1` in this test?
inactive

So what was the verdict on COc1ccc(/C=C2/C(=O)C(c3ccccc3)N(c3ccccc3)C2=O)cc1OC (configuration not stated) in this test?
inactive

So what was the verdict on CSc1ncc2c(n1)-c1ccccc1OC2N1CCCCC1 (configuration not stated) in this test?
inactive

So what was the verdict on CC1=NN(c2nc(N)nc(C(C)Sc3cc(Cl)c(C)cc3S(N)(=O)=O)n2)C(C)(C)C1 (configuration not stated) in this test?
inactive

So what was the verdict on `O=C(/C=C/c1cccs1)c1ccc(Cl)cc1` in this test?
inactive

So what was the verdict on `O=C(c1ccccc1)c1ccc2[nH]c(-c3c(Cl)c(Cl)c(Cl)c(Cl)c3C(=O)N/N=C\C=C\c3ccccc3)nc2c1` in this test?
inactive

So what was the verdict on CCOC(=O)C(NC(=O)c1ccc(/N=N/N(C)C)cc1)C(C)C (configuration not stated) in this test?
inactive

So what was the verdict on CC(C)=CCCC(C)CCOS(=O)C(F)(F)F (configuration not stated) in this test?
inactive

So what was the verdict on NC(CNO)C(=O)O (configuration not stated) in this test?
inactive

So what was the verdict on `CC(=O)Nc1c(C)ccc2c1C(=O)c1ccccc1C2=O` in this test?
inactive

So what was the verdict on CCC1(N=[N+]=[N-])C(=O)Nc2cc(C)ccc2C1=O (configuration not stated) in this test?
inactive

So what was the verdict on `CC(=O)Nc1oc(C)c(C)c1S(=O)(=O)c1ccc(Cl)cc1` in this test?
inactive

So what was the verdict on CCOC(=O)C1C2C1C1C(C(=O)OCC)C21 (configuration not stated) in this test?
inactive

So what was the verdict on Oc1ccc(C2Oc3cc(O)cc4c3C2c2cc(O)cc3c2C(c2cc(O)cc5c2C4C(c2ccc(O)cc2)O5)C(c2ccc(O)cc2)O3)cc1 (configuration not stated) in this test?
inactive

So what was the verdict on `CS(=O)(=O)OCCN(CCOS(C)(=O)=O)c1ccc(/C=N/N=c2/nc[nH]c3nc[nH]c23)cc1` in this test?
inactive

So what was the verdict on O=C(NNC(=O)c1ccccc1S)c1ccccc1S [BIS(THIOSALICYL)HYDRAZIDE] in this test?
inactive

So what was the verdict on CC(C)CC(NC(=O)C(Cc1ccccc1)NC(=O)[C@H]1CC[C@H](NC(=O)C(Cc2ccc(OC(C)(C)C)cc2)NC(=O)OC(C)(C)C)C1)C(N)=O (some centres not stated) in this test?
inactive

So what was the verdict on `CN(C)c1ccc(C=c2c3cc(O)ccc3n3c2cc(-c2ccccc2)[n+]3C)cc1` in this test?
inactive

So what was the verdict on `CCS(=O)(=O)CCn1c(=O)c2c(ncn2C)n(C)c1=O` in this test?
inactive

So what was the verdict on `COC(=O)/C=C/C(=O)Nc1cc(Cl)c(Cl)cc1CC(=O)N(C)[C@H]1CCCC[C@@H]1N1CCCC1` in this test?
inactive

So what was the verdict on `Cc1nc2nnc(C)n2c2c1C(=O)Nc1ccccc1N2` in this test?
inactive

So what was the verdict on CCOC(=O)NC(NC(C)CC)(C(F)(F)F)C(F)(F)F (configuration not stated) in this test?
inactive

So what was the verdict on `CCN(CC)c1nnc(CCCCCCCCc2nnc(N(CC)CC)o2)o1` in this test?
inactive

So what was the verdict on CC/C(=N/O)C(C)C(=O)CCC(=O)Nc1ccc(Cl)cc1 (configuration not stated) in this test?
inactive

So what was the verdict on COc1cc([C@@H]2c3[nH]c4ccccc4c3C(Nc3ccc([N+](=O)[O-])cc3)[C@H]3COC(=O)N23)cc(OC)c1O (some centres not stated) in this test?
active

So what was the verdict on COC(OC)C1OC(CO)C(n2cc(C)c(=O)[nH]c2=O)C1O (configuration not stated) in this test?
inactive

So what was the verdict on O=C1CC2(CCC(O)(c3cccs3)C(C(=O)c3cccs3)C2)C(=O)c2ccccc2N1 (configuration not stated) in this test?
inactive

So what was the verdict on `C(=N\Nc1nnc2c(n1)[nH]c1ccccc12)/c1cccnc1` in this test?
inactive

So what was the verdict on `O=C(CCc1nnc2s/c(=C\c3ccc4c(c3)OCO4)c(=O)n12)Nc1cc(Cl)ccc1Cl` in this test?
inactive

So what was the verdict on CC(=O)NC1C(OCc2ccccc2)OC(CO)C(O)C1OC(C)C(=O)NC(C(=O)NC(CCC(=O)NCCCCNc1c2ccccc2nc2cccc([N+](=O)[O-])c12)C(N)=O)C(C)C (configuration not stated) in this test?
inactive

So what was the verdict on S=C1NC(c2ccccc2)=NC(Cc2ccccc2)(c2ccccc2)N1c1ccccc1 (configuration not stated) in this test?
inactive

So what was the verdict on `COc1ccc(-c2cc3[nH]nc(N)c3c(=O)o2)cc1` in this test?
inactive

So what was the verdict on CNC(=O)NCCCCC(NC(=O)OCc1ccccc1)C(=O)OCc1ccccc1 (configuration not stated) in this test?
inactive

So what was the verdict on O=C(O)CC(NC(=O)Nc1ccc([N+](=O)[O-])cc1)C(=O)Nc1ccc([N+](=O)[O-])cc1 (configuration not stated) in this test?
inactive

So what was the verdict on COC(=O)C1C(O)C(C(=O)OC)C(C)N(C)C1C (configuration not stated) in this test?
inactive

So what was the verdict on `CN(C)CCSc1nccc(-c2cc3ccccc3s2)n1` in this test?
inactive

So what was the verdict on C=C1C(=O)C23C(O)C1CCC2C12CO[C@]3(O)[C@@H](O)C1C(C)(C)CCC2O (some centres not stated) in this test?
inactive

----------
Give measured GI50 for each item. Keep answers brief.
System: UACC-62
Assay: NCI tumour cell line growth inhibition, 48 h
Activity calls are given as the source filed them. Rule as the data show it: active = GI50 up to about 1.1 µM and inactive = higher.

Which value of GI50 has been reported for CCC(CCC(C)C1CCC2C3CC=C4CC(OC5OC(CO)C(O)C(O)C5O)CCC4(C)C3CCC12C)C(C)C (centres undefined) in the records?
> 100 µM (inactive)

Which value of GI50 has been reported for `CCS(=O)(=O)CCn1c(=O)c2c(ncn2C)n(C)c1=O` in the records?
> 100 µM (inactive)

Which value of GI50 has been reported for `CCOc1ccc(NC(=O)C(=O)CC(=O)c2sc(NNC(C)=O)nc2C)cc1` in the records?
> 100 µM (inactive)

Which value of GI50 has been reported for `CCOC(=O)C1=c2[nH]c3cccc4cccc(c43)n2C(=O)CC1` in the records?
> 100 µM (inactive)

Which value of GI50 has been reported for `O=[N+]([O-])c1ccc(-c2nn3c(C45CC6CC(CC(C6)C4)C5)nnc3s2)c(Cl)c1` in the records?
> 100 µM (inactive)

Which value of GI50 has been reported for COC(=O)/C=C/COCC1C2CCC(=O)C21 (centres undefined) in the records?
> 100 µM (inactive)

Which value of GI50 has been reported for `COC(=O)NC(Nc1ccccn1)(C(F)(F)F)C(F)(F)F` in the records?
> 100 µM (inactive)

Which value of GI50 has been reported for `C[C@]12CC[C@H]3[C@@H](CC=C4C[C@@H](O)CC[C@@]43C)[C@@H]1C/C(=C\c1cccnc1)[C@@H]2O` in the records?
7.96 µM (inactive)

Which value of GI50 has been reported for `COc1cc2nc(-c3ccc4ccccc4c3)nc(O)c2cc1OC` in the records?
99.3 µM (inactive)

Which value of GI50 has been reported for `NCC1CCN(c2nc3ccccc3c3c2CCCC3)CC1` in the records?
2.29 µM (inactive)

Which value of GI50 has been reported for CCOC(=O)C(C(=O)OCC)=C1NC2(c3ccccc3Nc3ccc(C)cc32)C(C(=O)OC)S1 (centres undefined) in the records?
20.8 µM (inactive)

Which value of GI50 has been reported for C=C1C(=O)C23C(O)C1CCC2C12CO[C@]3(O)[C@@H](O)C1C(C)(C)CCC2O (some centres undefined) in the records?
11.9 µM (inactive)

Which value of GI50 has been reported for Clc1ccc(C(c2ccccc2Cl)C(Cl)Cl)cc1 (centres undefined) in the records?
14.8 µM (inactive)

Which value of GI50 has been reported for `O=[N+]([O-])c1oc2ccc3ccccc3c2c1CCO` in the records?
2.87 µM (inactive)

Which value of GI50 has been reported for CN1N=CSC12C(=O)N(c1ccc(Cl)cc1)C(=O)N2c1ccc(Cl)cc1 (centres undefined) in the records?
3.36 µM (inactive)

Which value of GI50 has been reported for `CS/C(=N/C(=O)c1ccccc1Cl)SCCS/C(=N\C(=O)c1ccccc1Cl)SC` in the records?
> 100 µM (inactive)

Which value of GI50 has been reported for `CC(=O)N1C(=O)/C(=C\C(=O)c2ccc([N+](=O)[O-])cc2)c2ccccc21` in the records?
18.4 µM (inactive)

Which value of GI50 has been reported for `CC(=O)Nc1oc(C)c(C)c1S(=O)(=O)c1ccc(Cl)cc1` in the records?
42 µM (inactive)

Which value of GI50 has been reported for `C/C(=N\Oc1cc(Cl)ncn1)c1ccccn1` in the records?
47.5 µM (inactive)

The reported measurements were obtained from ChEMBL document CHEMBL1201862.
